STUDY SYSTEM: PAR2 (HT-29 cells, SLIGKV activation) (Homo sapiens)
Construct: host or cells: HT-29 cells
Sequence (P55085 26-397): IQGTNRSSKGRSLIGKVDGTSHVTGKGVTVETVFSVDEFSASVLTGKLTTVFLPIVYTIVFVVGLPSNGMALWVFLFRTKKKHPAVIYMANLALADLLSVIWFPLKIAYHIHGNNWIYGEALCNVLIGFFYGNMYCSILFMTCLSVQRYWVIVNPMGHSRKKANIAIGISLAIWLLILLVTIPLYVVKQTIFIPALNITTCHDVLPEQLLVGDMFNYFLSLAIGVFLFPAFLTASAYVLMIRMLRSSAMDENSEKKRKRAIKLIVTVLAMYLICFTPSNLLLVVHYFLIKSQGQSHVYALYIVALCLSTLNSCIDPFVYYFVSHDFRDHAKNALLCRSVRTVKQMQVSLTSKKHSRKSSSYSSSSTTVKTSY
MEASUREMENT NOTES: Ca FLIPR TETRA assay, ANTAGONIST mode, stimulation with 8 μM SLIGKV
Type: cell-based
COND: Table 6; HT-29 cells, 8 μM SLIGKV
Listing of entries alongside the reported IC50.
Express it in µM; write the number only.

CC(C)c1cc(Cl)nn2cc(C(=O)N3CCN(C(=O)C4(O)CCOCC4)CC3(C)C)nc12 = 37
CCC(=O)N1CCN(C(=O)c2cn3nc(-c4ccc(F)cc4)cc(C(F)(F)F)c3n2)CC1 = 22
O=C(c1cn2nc(-c3ccc(F)cc3)cc(C(F)(F)F)c2n1)N1CCN(CCn2ccnc2)CC1 = 23
CC(C)c1cc(C2CCOCC2)nn2cc(C(=O)N3CCN(C(=O)C4(O)CCC4)CC3(C)C)nc12 = 20
CC(C)c1cc(-c2ccc(F)cc2)nn2cc(C(=O)N3CCCCC34COC4)nc12 = 25
CC(C)c1cc(-c2ccc(F)cc2)nn2cc(C(=O)N3CCNC(=O)C3)nc12 = 17

Answer with the recorded IC50 of CC(C)c1cc(Cl)nn2cc(C(=O)N3CCN(C(=O)C4(O)CCC4)CC3(C)C)nc12 only.
27

Answer with the recorded IC50 of C[C@H]1CN(C(=O)c2cn3nc(-c4ccc(F)cc4)c(C(F)(F)F)cc3n2)CCN1C(=O)OCc1ccccc1 only.
23

Answer with the recorded IC50 of Cc1cc(-c2ccc(F)cc2)nn2cc(C(=O)N3CCC4(COC4)C3)nc12 only.
27

Data origin: patent US20190119282A1
